experiment: Coupling of water and octanoic acid by hydrotropes (amount producing a single phase); format: physicochemical; conditions: ratio of water:octanoic acid 90:10
// classify: if (Wt % Hydrotrope required to compatibilize phases < 50%) label 1 else label 0

Here are 5 compounds together with their reported answers.
Compound | Class
CCOC(=O)CCC1(C)OCC(CO)O1 (stereo not drawn) | label 0
CC1COC(C)(CCCO)O1 (stereo not drawn) | label 1
COCC(C)O (stereo not drawn) | label 1
COC(C)COC(C)CO (stereo not drawn) | label 1
CCO | label 1

Note: attention shifts to another entry.
Q: Hello, I'm reviewing records and need to know if Wt % Hydrotrope required to compatibilize phases of CCCCOCCO is below 50%. Could you check?
Result: label 0

====

test: Coupling of water and castor oil by hydrotropes; assay type: physicochemical; conditions: ratio of water to castor oil 90:10
Outcome measure: Wt % Castor oil (at compatibilization) (%)
Give bare numbers, in %.

Some solved entries appear below for comparison.
Compound | Wt % Castor oil (at compatibilization) / %
CC1COC(C)(CCCO)O1 (centres unmarked) | 2
COC(C)COC(C)CO (centres unmarked) | 2
CCOC(=O)CCC1(C)OCC(CO)O1 (centres unmarked) | 1
COCC(C)O (centres unmarked) | 2

Could you now consider this next compound?
Q: Which Wt % Castor oil (at compatibilization) reading was recorded for the compound CCO ?
Result: 2

====

assay: Coupling of water and soy methyl ester by hydrotropes; assay type: physicochemical; conditions: ratio of water:soy methyl esters 10:90
Can you tell me Wt % Soy Methyl Esters (at compatibilization) for the items I'm about to list?
Numbers only, in %.

Compound | Data value
CCO | 41
CCOC(=O)CCC1(C)OCC(CO)O1 (centres unmarked) | 20
COC(C)COC(C)CO (centres unmarked) | 47

Below is a list of compounds. For each, state its recorded Wt % Soy Methyl Esters (at compatibilization).
1. CC1COC(C)(CCCO)O1 (centres unmarked)
2. COCC(C)O (centres unmarked)

Result:
1. 38
2. 44

====

experiment: Coupling of water and octanoic acid by hydrotropes (amount producing a single phase); assay type: physicochemical; details: water:octanoic acid 10:90 (DI water 0.5 g, octanoic acid 4.5 g)
Returns one of 1 or 0; 1 when Amount of hydrotrope that produced a single phase is >= 2 grams.

Observe how each entry below is paired with its result.
Compound | Class
CCCCOCCO | 1
CCO | 0
CCOC(=O)CCC1(C)OCC(CO)O1 (stereo not drawn) | 1
COC(C)COC(C)CO (stereo not drawn) | 1
COCC(C)O (stereo not drawn) | 0

From here, focus on the item given below.
Q: Decide: Amount of hydrotrope that produced a single phase of CC1COC(C)(CCCO)O1 (stereo not drawn) >= 2 grams?
Result: 1

====

experiment: Coupling of water and octanoic acid by hydrotropes (amount producing a single phase); format: physicochemical; conditions: ratio of water:octanoic acid 10:90
Mark label 1 only when Wt % Octanoic Acid (resulting, at compatibilization) stays strictly below 60%. Values equal to the cut-off are label 0.

Compound | Class
CCOC(=O)CCC1(C)OCC(CO)O1 (stereo not drawn) | label 1
COCC(C)O (stereo not drawn) | label 0
CC1COC(C)(CCCO)O1 (stereo not drawn) | label 0
COC(C)COC(C)CO (stereo not drawn) | label 0

Q: I wonder whether CCO has Wt % Octanoic Acid (resulting, at compatibilization) below 60%. Can you tell?
Result: label 0

====

test: Coupling of water and octanoic acid by hydrotropes (amount producing a single phase); type: physicochemical; conditions: water:octanoic acid 70:30 (DI water 3.5 g, octanoic acid 1.5 g)
Outcome measure: Amount of hydrotrope that produced a single phase (grams)
Numbers only, in grams.

Compound | Unit text | Data value
CCO [ethanol] | grams | 2.97

I'm hoping you can list Amount of hydrotrope that produced a single phase for every compound here, please.
1. CCOC(=O)CCC1(C)OCC(CO)O1 (stereo not drawn) [EtLGK, glycerol ketal of ethyl levulinic acid]
2. COC(C)COC(C)CO (stereo not drawn) [DPM, dipropylene glycol methyl ether]

Result:
1. 9.79
2. 4.66

Go through the items and report each one's Amount of hydrotrope that produced a single phase.
1. CCCCOCCO [2-butoxyethanol]
2. COCC(C)O (stereo not drawn) [PM, propylene glycol methyl ether]
3. CC1COC(C)(CCCO)O1 (stereo not drawn) [Ketal alcohol (1a)]

Result:
7.9
3.68
6.07

====

test: Coupling of water and octanoic acid by hydrotropes (amount producing a single phase); format: physicochemical; conditions: water:octanoic acid 50:50 (DI water 5.0 g, octanoic acid 5.0 g)
Sorting guide: entries reporting Amount of hydrotrope that produced a single phase beneath 7 grams go in the condition met pile, the rest go in the condition not met pile.

Compound | Class
COC(C)COC(C)CO (stereo not drawn) [DPM, dipropylene glycol methyl ether] | condition not met

Then there is this compound:
Q: Is it true that Amount of hydrotrope that produced a single phase reported for COCC(C)O (stereo not drawn) [PM, propylene glycol methyl ether] is less than 7 grams?
Result: condition met

====

Exercise: for every item that follows, state its recorded Wt % Octanoic Acid (resulting, at compatibilization).
test: Coupling of water and octanoic acid by hydrotropes (amount producing a single phase); assay type: physicochemical; conditions: ratio of water:octanoic acid 30:70
Numbers only, in %.

# example entries with known answers
Compound | Data value
CCCCOCCO [2-butoxyethanol] | 34
COCC(C)O (stereo not drawn) [PM, propylene glycol methyl ether] | 43
CC1COC(C)(CCCO)O1 (stereo not drawn) [Ketal alcohol (1a)] | 33
CCO [ethanol] | 44
COC(C)COC(C)CO (stereo not drawn) [DPM, dipropylene glycol methyl ether] | 37

Here is another compound to look at.
Q: So what does the record say about Wt % Octanoic Acid (resulting, at compatibilization) for CCOC(=O)CCC1(C)OCC(CO)O1 (stereo not drawn) [EtLGK, glycerol ketal of ethyl levulinic acid] ?
Result: 29

====

experiment: Coupling of water and soy methyl ester by hydrotropes; assay type: physicochemical; conditions: ratio of water:soy methyl esters 30:70
Outcome measure: Wt % Soy Methyl Esters (at compatibilization) (%)
Numbers only, in %.

Take a look at these entries with their results.
Compound | Data value
CCO | 18
COC(C)COC(C)CO (centres unmarked) | 28
CCOC(=O)CCC1(C)OCC(CO)O1 (centres unmarked) | 12
CC1COC(C)(CCCO)O1 (centres unmarked) | 19

In the following, a different compound is considered.
Q: Requested read-out: Wt % Soy Methyl Esters (at compatibilization). Entry: COCC(C)O (centres unmarked)
Result: 25

====

Test: Coupling of water and octanoic acid by hydrotropes (amount producing a single phase)
Type: physicochemical
Details: ratio of water:octanoic acid 10:90
Protocol: Hydrotropes were added to a two-component mixture of octanoic acid and deionized (DI) water to find the amount that produced a single phase from the two separate phases of water and octanoic acid. The percent hydrotrope required to compatibilize phases (and the resulting percent octanoic acid) were calculated and the results are shown in Table 4 as well as FIG. 1.
Criterion: Wt % Hydrotrope required to compatibilize phases meeting or surpassing 30%. Met: t. Not met: f.

For orientation, consider the following solved cases.
Molecule | Class
CCCCOCCO | t
CCO | f
CCOC(=O)CCC1(C)OCC(CO)O1 (stereo not drawn) | t

Q: Could you please find out whether COCC(C)O (stereo not drawn) has Wt % Hydrotrope required to compatibilize phases that meets 30% or exceeds it?
Result: f

Q: In plain terms: is recorded Wt % Hydrotrope required to compatibilize phases at least 30% for CC1COC(C)(CCCO)O1 (stereo not drawn) ?
Result: t

====

assay: Coupling of water and soy methyl ester by hydrotropes; type: physicochemical; settings: ratio of water:soy methyl esters 50:50
Outcome measure: Wt % Hydrotrope required to compatibilize the phases (%)
Answers are plain numbers, in %.

Consider the following illustrative entries.
Compound | Unit text | Data value
CCO | % | 78
CCOC(=O)CCC1(C)OCC(CO)O1 (centres unmarked) | % | 86
CC1COC(C)(CCCO)O1 (centres unmarked) | % | 81
COCC(C)O (centres unmarked) | % | 77

Next:
Q: Entry COC(C)COC(C)CO (centres unmarked) : reported Wt % Hydrotrope required to compatibilize the phases = ?
Result: 74

====

assay: Coupling of water and castor oil by hydrotropes; type: physicochemical; details: ratio of water to castor oil 50:50
Outcome measure: Wt % Hydrotrope required to compatibilize phases (%)
Numbers only, in %.

Study these solved cases before continuing.
Molecule | Data value
COCC(C)O (centres unmarked) | 76
CCO | 79
COC(C)COC(C)CO (centres unmarked) | 74
CCOC(=O)CCC1(C)OCC(CO)O1 (centres unmarked) | 82

Q: So what does the record say about Wt % Hydrotrope required to compatibilize phases for CC1COC(C)(CCCO)O1 (centres unmarked) ?
Result: 79

====

experiment: Coupling of water and soy methyl ester by hydrotropes; type: physicochemical; conditions: ratio of water:soy methyl esters 70:30
What Wt % Hydrotrope required to compatibilize the phases was measured for each of the following?
Answers are plain numbers, in %.

Examples with answers:
Molecule | Unit text | Data value
CCOC(=O)CCC1(C)OCC(CO)O1 (centres unmarked) | % | 86
COCC(C)O (centres unmarked) | % | 81

Please give Wt % Hydrotrope required to compatibilize the phases, item by item, for the list that follows.
1. CCO
2. CC1COC(C)(CCCO)O1 (centres unmarked)
3. COC(C)COC(C)CO (centres unmarked)

Result:
[80, 83, 78]
